molecular target: UniProt:Q9NYK1; assay: TLR7 agonist bioactivity: induction of IFNα protein in pDC-enriched PBMC cultures (ELISA, 24 h); type: cell-based; details: less potent than IMDQ
Sequence (Q9NYK1 27-1049): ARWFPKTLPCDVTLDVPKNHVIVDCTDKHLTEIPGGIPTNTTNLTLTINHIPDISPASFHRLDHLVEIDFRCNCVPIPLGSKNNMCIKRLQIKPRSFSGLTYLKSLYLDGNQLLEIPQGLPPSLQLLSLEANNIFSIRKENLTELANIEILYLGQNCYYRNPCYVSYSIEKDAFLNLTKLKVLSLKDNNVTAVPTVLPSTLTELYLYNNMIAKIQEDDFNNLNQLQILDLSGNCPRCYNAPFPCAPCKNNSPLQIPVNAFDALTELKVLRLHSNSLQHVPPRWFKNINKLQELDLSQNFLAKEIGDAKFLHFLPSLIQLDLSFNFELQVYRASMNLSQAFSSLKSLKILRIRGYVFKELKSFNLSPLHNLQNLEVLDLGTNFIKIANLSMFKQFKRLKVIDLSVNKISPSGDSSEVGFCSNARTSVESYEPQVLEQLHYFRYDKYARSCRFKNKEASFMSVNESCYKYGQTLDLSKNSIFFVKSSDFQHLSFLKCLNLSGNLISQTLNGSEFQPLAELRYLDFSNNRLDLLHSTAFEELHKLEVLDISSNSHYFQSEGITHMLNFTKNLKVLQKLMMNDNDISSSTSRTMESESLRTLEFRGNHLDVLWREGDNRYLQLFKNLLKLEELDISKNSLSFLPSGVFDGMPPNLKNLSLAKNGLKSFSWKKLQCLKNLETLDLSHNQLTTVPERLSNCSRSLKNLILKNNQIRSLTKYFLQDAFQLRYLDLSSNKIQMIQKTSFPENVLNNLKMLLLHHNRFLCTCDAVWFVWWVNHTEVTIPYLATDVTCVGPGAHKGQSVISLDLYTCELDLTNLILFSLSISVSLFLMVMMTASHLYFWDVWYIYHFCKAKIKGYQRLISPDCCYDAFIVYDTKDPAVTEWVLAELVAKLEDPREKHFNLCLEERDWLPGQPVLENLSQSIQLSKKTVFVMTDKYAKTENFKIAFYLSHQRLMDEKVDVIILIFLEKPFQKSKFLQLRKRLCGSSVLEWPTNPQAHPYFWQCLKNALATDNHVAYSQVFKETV
PROPERTY LABEL: fold loss of TLR7 agonist potency compared to Compound No. 63-00 (IMDQ)
Answer format: value, then unit.

Example results:
1. CCCCc1nc2c(N)nc3ccccc3c2n1Cc1ccc(CNCCC2CCCC2)cc1 [Compound No. 63-36] ... 10.9 fold
2. CCCCCNCc1ccc(Cn2c(CCCC)nc3c(N)nc4ccccc4c32)cc1 [Compound No. 63-17] ... 2 fold
3. CCCCc1nc2c(N)nc3ccccc3c2n1Cc1ccc(CNCC2CCC2)cc1 [Compound No. 63-44] ... 1.2 fold
4. CCCCc1nc2c(N)nc3ccccc3c2n1Cc1ccc(CNCC2(C)CCC2)cc1 [Compound No. 63-45] ... 1.9 fold
5. CCCCCCCCCCCCCCCCCCNCc1ccc(Cn2c(CCCC)nc3c(N)nc4ccccc4c32)cc1 [Compound No. 63-29] ... 19 fold
6. CCCCc1nc2c(N)nc3ccccc3c2n1Cc1ccc(CNCC(C)(C)C2CCC2)cc1 [Compound No. 63-47] ... 9.0 fold
7. CCCCCCCCCCCCCC(=O)NCc1ccc(Cn2c(CCCC)nc3c(N)nc4ccccc4c32)cc1 [Compound No. 63-10] ... 2 fold
8. CCCCc1nc2c(N)nc3ccccc3c2n1Cc1ccc(CNC(=O)CC2CC2)cc1 [Compound No. 63-34] ... 8 fold

# input for lookup
Problem: Specify fold loss of TLR7 agonist potency compared to Compound No. 63-00 (IMDQ) for CCCCc1nc2c(N)nc3ccccc3c2n1Cc1ccc(CNCCC2CC2)cc1 [Compound No. 63-33] and stop.
Result: 4 fold
